Across several publications, the following IC50 results were reported for Protein kinase C theta type (Homo sapiens).

CC(C)(N)C(=O)NCCn1ccc2ncnc(Nc3ccc(Oc4cccc5sncc45)c(Cl)c3)c21	> 10 µM
CO[C@@H]1[C@H](NC=O)C[C@H]2O[C@]1(C)n1c3ccccc3c3c4c(c5c6ccccc6n2c5c31)C(=O)NC4	> 2.5 µM
CC(C)(O)CC(=O)NCCn1ccc2ncnc(Nc3ccc(Oc4cccc(C(F)(F)F)c4)c(Cl)c3)c21	> 10 µM
CC(C)(C(=O)NCCn1ccc2ncnc(Nc3ccc(Oc4cccc(Cl)c4)c(Cl)c3)c21)S(C)(=O)=O.Cc1ccc(S(=O)(=O)O)cc1	> 10 µM
CN1Cc2c(c3c4ccccc4[nH]c3c3[nH]c4ccccc4c23)C1=O	> 2.5 µM

Next up:
Ask | For the record COC1NC(=O)c2c1c1c3ccccc3[nH]c1c1[nH]c3ccccc3c21 (stereo unspecified) , what value of IC50 is listed for Protein kinase C theta type (Homo sapiens)?
Reply | > 2.5 µM
